# testSummary: plasmodial surface anion channel blockers, osmotic lysis – cell-based, P. falciparum Indochina, OD700, 2 h, primary screen (AID 1155);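 further: lysis reports solute entry through the parasite surface anion channel PSAC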
# runConditions: P. falciparum Indochina infected erythrocytes, called active from +8 up or from −8 down
Calls of active or inactive are those of the source.
Possible outcomes: True (active), False (inactive)

{"columns": ["compound", "categoryLabel"],
 "data": [
  ["C=CC[C@@]1(C(=O)NCCN2CCOCC2)N=C(c2ccc(OCCCO)cc2)O[C@@H]1c1ccccc1CN=[N+]=[N-]", "True"],
  ["C/C=C/[C@H](CCn1cc([C@H](O)c2ccccc2)nn1)[Si](C)(C)c1ccc(OC)cc1", "False"],
  ["O[C@@H](Cc1ccccc1)[C@@H](/C=C/c1ccccc1)NCc1ccccc1Br", "False"],
  ["[N-]=[N+]=NCc1ccccc1[C@H]1OC(c2ccc(OCCCO)cc2)=N[C@@]1(Cc1ccccc1)C(=O)NCC(O)CO (some centres undefined)", "True"]
]}
